Recorded values, source the supplement of paper PMC11061612.

Tested on: AN3-CA (Endometrial Carcinoma)
Measurement protocol: combination Emax (second highest fraction inhibited in the dose matrix, 72 h); higher = more inhibition; extreme values may be limits of the assay
Test readout: combination Emax

[
  {
    "Molecule": "CC(=O)c1c(C)c2cnc(Nc3ccc(N4CCNCC4)cn3)nc2n(C2CCCC2)c1=O [Palbociclib] + CN(CC[C@H](CSC1=CC=CC=C1)NC2=C(C=C(C=C2)S(=O)(=O)NC(=O)C3=CC=C(C=C3)N4CCC(CC4)[C@H](C5=CC=CC=C5C6=CC=C(C=C6)Cl)O)S(=O)(=O)C(F)(F)F)CCO [AZD4320] (first compound max 10 µM, 7x7, partner max 1 µM)",
    "Observed result": 0.709
  },
  {
    "Molecule": "CC(=O)c1c(C)c2cnc(Nc3ccc(N4CCNCC4)cn3)nc2n(C2CCCC2)c1=O [Palbociclib] + Cc1c2c(nn1C)CSCc1cc(n(C)n1)CSc1cc(c3ccccc3c1)OCCCc1c(C(=O)O)n(C)c3c-2c(Cl)ccc13 [AZD5991] (first compound max 10 µM, 7x7, partner max 1 µM)",
    "Observed result": 0.886
  },
  {
    "Molecule": "COc1cccc(OCCCN)c1-c1cc(Nc2cnc(C#N)cn2)n[nH]1 [Prexasertib] + O=C(c1cc(Cc2n[nH]c(=O)c3ccccc23)ccc1F)N1CCN(C(=O)C2CC2)CC1 [Olaparib] (first compound max 1 µM, 7x7, partner max 10 µM)",
    "Observed result": 0.81
  },
  {
    "Molecule": "C=CCn1c(=O)c2cnc(Nc3ccc(N4CCN(C)CC4)cc3)nc2n1-c1cccc(C(C)(C)O)n1 [AZD1775] + O=C(c1cc(Cc2n[nH]c(=O)c3ccccc23)ccc1F)N1CCN(C(=O)C2CC2)CC1 [Olaparib] (first compound max 1 µM, partner max 10 µM)",
    "Observed result": 0.339
  },
  {
    "Molecule": "CN(CCO)CC[C@H](CSc1ccccc1)Nc1ccc(S(=O)(=O)NC(=O)c2ccc(N3CCC([C@@H](O)c4ccccc4-c4ccc(Cl)cc4)CC3)cc2)cc1S(=O)(=O)C(F)(F)F [AZD4320] + CCN(CCO)CCCOc1ccc2c(Nc3cc(CC(=O)Nc4cccc(F)c4)[nH]n3)ncnc2c1 [AZD2811] (first compound max 1 µM, 7x7, partner max 1 µM)",
    "Observed result": 0.474
  },
  {
    "Molecule": "COc1cccc(OCCCN)c1-c1cc(Nc2cnc(C#N)cn2)n[nH]1 [Prexasertib] + CN(C)CCCOc1ccc(-c2ccc3ncc4c(c3c2)n(C2CCOCC2)c(=O)n4C)cn1 [AZD0156] (first compound max 1 µM, 7x7, partner max 1 µM)",
    "Observed result": 0.81
  },
  {
    "Molecule": "CC1(C)CCC(CN2CCN(c3ccc(C(=O)NS(=O)(=O)c4ccc(NCC5CCOCC5)c([N+](=O)[O-])c4)c(Oc4cnc5[nH]ccc5c4)c3)CC2)=C(c2ccc(Cl)cc2)C1 [Venetoclax] + C1CN(CCC1(C(=O)N[C@@H](CCO)C2=CC=C(C=C2)Cl)N)C3=NC=NC4=C3C=CN4 [Capivasertib] (first compound max 1 µM, 7x7, partner max 3 µM)",
    "Observed result": 0.653
  },
  {
    "Molecule": "Cn1cnc2c(F)c(Nc3ccc(Br)cc3Cl)c(C(=O)NOCCO)cc21 [Selumetinib] + CC(C)n1c(=O)n(C)c2cnc3cc(F)c(-c4ccc(OCCCN5CCCCC5)nc4)cc3c21 [AZD1390] (first compound max 10 µM, 7x7, partner max 0.3 µM)",
    "Observed result": 0.0572
  },
  {
    "Molecule": "C=CCn1c(=O)c2cnc(Nc3ccc(N4CCN(C)CC4)cc3)nc2n1-c1cccc(C(C)(C)O)n1 [AZD1775] + C[C@@H]1COCCN1C2=NC(=NC(=C2)C3(CC3)[S@](=N)(=O)C)C4=C5C=CNC5=NC=C4 [AZD6738] (first compound max 1 µM, partner max 10 µM)",
    "Observed result": 0.714
  },
  {
    "Molecule": "Cc1c2c(nn1C)CSCc1cc(n(C)n1)CSc1cc(c3ccccc3c1)OCCCc1c(C(=O)O)n(C)c3c-2c(Cl)ccc13 [AZD5991] + Cc1cc2ncnn2cc1Nc1ncc2c(n1)n(C1CCOCC1)c(=O)n2C [AZD7648] (first compound max 1 µM, 7x7, partner max 10 µM)",
    "Observed result": 0.654
  },
  {
    "Molecule": "COc1cccc(OCCCN)c1-c1cc(Nc2cnc(C#N)cn2)n[nH]1 [Prexasertib] + Cc1cc2ncnn2cc1Nc1ncc2c(n1)n(C1CCOCC1)c(=O)n2C [AZD7648] (first compound max 1 µM, 7x7, partner max 10 µM)",
    "Observed result": 0.843
  }
]
